These entries and their values trace back to Sander's compilation of Henry's law constants.

Test: Henry solubility constant Hcp at 298.15 K (mol/(m3 Pa))
Conditions: reference: Allen et al. (1998)
Quantity measured: Henry solubility constant Hcp
Note: the reply should be a number with no unit written.

Sample records with Henry solubility constant Hcp:
>  <Compound>
Cc1ccccc1 [methylbenzene]

>  <Henry solubility constant Hcp>
0.0015

$$$$
>  <Compound>
CC(=O)c1ccccc1 [1-phenylethanone]

>  <Henry solubility constant Hcp>
0.97

$$$$
>  <Compound>
c1ccccc1 [benzene]

>  <Henry solubility constant Hcp>
0.0018

$$$$
>  <Compound>
CCc1ccccc1 [ethylbenzene]

>  <Henry solubility constant Hcp>
0.0013

$$$$

Suppose we examine the compound C=CC(C)=O [3-buten-2-one] ; what Henry solubility constant Hcp value has been reported?
0.21

Okay, and O=Cc1ccccc1 [benzaldehyde] ?
0.35
